target: Dihydroorotate dehydrogenase (quinone), mitochondrial (Plasmodium falciparum (isolate 3D7)); experiment: PfDHODH enzyme inhibitors, primary screen, biochemical, C-terminal His tag, absorbance 600 nm (AID 1175); conditions: DCIP absorbance 600 nm, higher = more signal, called active from +8 up or from −8 down;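 also: recombinant parasite enzyme with a five histidine tag at its C terminus; test concentration not given here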
observable: composite z-score
Keep it simple and answer with nothing but the number.

COCCOC(=O)N1C(=O)[C@@]2(c3cc(C#Cc4ccc(OC)cc4)ccc31)[C@H](C(N)=O)[C@H]1C(=O)O[C@H](c3ccccc3)[C@H](c3ccccc3)N1[C@@H]2c1ccccc1OCCO
0.361
CC(=O)NCCCC[C@@H]1NC(=O)[C@@H]2C[C@H](C(=O)NCCCCN(C)C)[C@H](c3cccc(OCCO)c3)N2C1=O
-0.446
COc1ccc(CCN2C(=O)[C@@]3(c4ccc([N+](=O)[O-])cc4)CC(=O)N(C4CCCCC4)[C@@H]3c3ccc(CO)cc32)cc1
-25.9

Please give measured composite z-score of the following entry: CN1C(=O)C2C=CC(C(O)C3CC=CCC3)N(NC(=O)OC(C)(C)C)C2C1=O (stereo not drawn)
0.123

----------
test: mitochondrial membrane potential change in A549 cells, profiling panel, cell-based, JC-1 fluorescence, basal, 24 h, 100 nL (AID 1138); conditions: higher = more signal;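 also: A549 lung adenocarcinoma cells under basal conditions with no added stimulus; test concentration not given here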
observable: z-score
Keep it simple and answer with nothing but the number.

Please give measured z-score of the following entry: "CCCCCCC#C[Si](O[C@H](c1ccccc1)c1cn([C@H](CO)Cc2ccccc2)nn1)(C(C)C)C(C)C"
-0.319

Please give measured z-score of the following entry: "CN(C)C(=O)[C@@]1(Cc2ccccc2CN=[N+]=[N-])N=C(c2ccc(OCCCO)cc2)O[C@H]1c1ccccc1"
0.0462

Please give measured z-score of the following entry: COc1ccc(C(O)C2C=CC3C(=O)NC(=O)C3N2Nc2ccccn2)cc1 (centres undefined)
-0.0269

Please give measured z-score of the following entry: "C=CC[C@]1(C(=O)N2CCCCC2)N=C(c2ccc(OCCCO)cc2)O[C@H]1c1ccccc1"
1.48

----------
experiment: binders of probe aFGF2 on microarray, primary screen, stem cell growth factor project, biochemical, small-molecule microarray, fluorescence 635/667 (AID 1067); details: higher = more signal;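 also: measures binding of biotinylated aFGF2 protein to printed compounds on slides; z-score merges feature fluorescence and signal-to-noise across triplicate slides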
observable: composite z-score
Keep it simple and answer with nothing but the number.

Previously resolved entries follow.
CN1C(=O)[C@]2(Cc3ccccc3)N=C(c3ccc(OCCCO)cc3)O[C@@H]2c2ccccc21
-0.0333
C=CCNC(=O)[C@@H]1[C@H]2C(=O)O[C@H](c3ccccc3)[C@H](c3ccccc3)N2[C@H](c2ccc(OCCO)cc2)[C@@]12C(=O)Nc1ccc(C#CCCO)cc12
0.162
CCCC=C(CCC)[C@@H](NC(=O)Oc1ccc(F)cc1)c1ccc(C(=O)OC)cc1
0.0883
C=CCC(OC(C)=O)[C@@H]1[C@@H](N(Cc2ccc(-c3cccc(C(F)(F)F)c3)o2)C(=O)c2ccc(-c3ccccc3)cc2)c2cc(OCCCO)ccc2N1C(=O)c1ccc(-c2ccccc2)cc1 (some centres not stated)
-0.0242
C=CCC(OC(C)=O)[C@@H]1[C@@H](N(Cc2ccc(-c3ccccc3)cc2)C(=O)Cc2ccc(F)cc2)c2cc(OCCCO)ccc2N1C(=O)c1ccc(-c2ccccc2)cc1 (some centres not stated)
-0.0145

Please give measured composite z-score of the following entry: "O=C1O[C@H](c2ccccc2)[C@H](c2ccccc2)N2[C@H]1[C@@H](C(=O)N1CCN(c3ncccn3)CC1)[C@]1(C(=O)Nc3ccc(C#CC4=CCCCC4)cc31)[C@H]2c1ccc(O)cc1"
-0.0523

Please give measured composite z-score of the following entry: "COCCOC(=O)N1C(=O)[C@@]2(c3cc(C#CC4=CCCCC4)ccc31)[C@H](C(=O)Nc1nc3ccccc3s1)[C@H]1C(=O)O[C@H](c3ccccc3)[C@H](c3ccccc3)N1[C@@H]2c1ccc(OCCO)cc1"
-0.0009

----------
test system: Chordin-like protein 2 (CHRDL2); experiment: CHRDL2 small-molecule binders, primary screen, biochemical, small-molecule microarray, 635 nm fluorescence (AID 1126); conditions: small-molecule microarray binding, fluorescence 635 nm; higher = more signal;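 also: printed compound slides probed with Chrdl2 protein at 4 µg/mL for 1 h at 4 C; score merges 667 nm emission intensity with signal to noise over three replicate slides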
The following molecules are shown together with reported composite z-score values.

Previously resolved entries follow.
O=C1NC(=O)C2C1C=CC(C(O)c1cccc3ccccc13)N2Nc1ccccn1 (stereo not given)
0.394
CCCN1C(=O)[C@]2(CCS(=O)(=O)c3ccccc3)N=C(c3ccc(OCCCO)cc3)O[C@@H]2c2ccccc21
0.359
COC(=O)[C@@]1(Cc2ccc(OC)cc2)[C@H]2c3cc(C(=O)N4CCCC4)n(Cc4ccc(OC)c(OC)c4)c3C[C@H]2CN1C(=O)c1ccccc1
0.206
CC1CC/C=C\[C@H]2OC34C=CCN(Cn5nnc6ccccc65)C(=O)[C@H]3N(C(CO)C(C)C)C(=O)[C@@H]4C2C(=O)O1 (stereo not given in full)
-0.89
COc1ccc([Si](C)(C)[C@H]2[C@H](CCn3cc([C@H](O)c4ccccc4)nn3)O[C@@]3(C(=O)N(Cc4cccc(N5CCOC5=O)c4)c4ccccc43)[C@@H]2C)cc1
0.528

Please give measured composite z-score of the following entry: "C=CCOC(=O)[C@H]1[C@@H]2C(=O)O[C@@H](c3ccccc3)[C@@H](c3ccccc3)N2[C@@H](c2ccc(OCCOC(=O)[C@H]3C[C@H]4C(=O)N[C@@H](CC(C)C)C(=O)N4[C@H]3c3ccc(O)cc3)cc2)[C@]12C(=O)Nc1ccc(I)cc12"
1.37

Please give measured composite z-score of the following entry: "C=C(CCCC)C(=O)CC[C@H](OC(C)=O)c1cccc(OCCO)c1"
-1.14

Please give measured composite z-score of the following entry: "[N-]=[N+]=NCc1ccccc1C[C@]1(C(=O)O)N=C(c2ccc(OCCCO)cc2)O[C@H]1c1ccccc1N=[N+]=[N-]"
-0.958

----------
test system: Sonic hedgehog protein (Shh); assay: small-molecule binders of Shh protein, primary screen, biochemical, small-molecule microarray, 635/667 nm fluorescence (AID 1151); details: small-molecule microarray binding, 635 nm fluorescence; higher = more signal;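 also: Shh protein binding to compounds spotted on small-molecule microarray slides; score combines spot fluorescence intensity with signal-to-noise across triplicate slides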
The following molecules are shown together with reported composite z-score values.
Keep it simple and answer with nothing but the number.

Previously resolved entries follow.
CCOC(=O)C[C@H]1[C@H](OC(=O)c2cc3ccccc3oc2=O)[C@@H](NC(=O)C2CCCCC2)c2cc(OCCCO)ccc2N1C(=O)c1ccccc1
0.705
COC(=O)[C@@]1(Cc2ccc(F)cc2)[C@H]2c3cc(C(=O)N(C)C)n(Cc4nc5ccccc5[nH]4)c3C[C@H]2CN1C(=O)c1ccccc1
-0.586
C=CC[C@]1(C(=O)N2CCCCC2)N=C(c2ccc(OCCCO)cc2)O[C@H]1c1ccccc1
-0.328
COc1ccc([Si](C)(C)[C@H]2[C@H](CCn3cc([C@H](O)c4ccccc4)nn3)O[C@@]3(C(=O)N(Cc4cccc(N5CCOC5=O)c4)c4ccccc43)[C@@H]2C)cc1
1.5
COCCn1c(C(=O)N2CCCC2)cc2c1C[C@H]1CN(C(=O)c3ccccc3)[C@@](Cc3ccc(F)cc3)(C(=O)OC)[C@@H]21
-0.554

Please give measured composite z-score of the following entry: "COC(=O)[C@@]1(Cc2ccc(OC)cc2)[C@H]2c3cc(C(=O)N4CCCC4)n(Cc4ccccc4)c3C[C@H]2CN1C(=O)c1ccccc1"
-0.442

Please give measured composite z-score of the following entry: C=CCN(Cc1ccccc1)C(=O)C(c1cccs1)N(CCOCCO)C(=O)/C=C\C(=O)O (stereo not drawn)
-0.933

Please give measured composite z-score of the following entry: "COc1ccc([Si](C)(C)[C@H]2[C@H](CCO)O[C@@]3(C(=O)N(Cc4ccc(N5C(=O)COc6ccccc65)cc4)c4ccccc43)[C@@H]2C)cc1"
-0.15

----------
assay: CREB reporter modulators under forskolin, primary screen, cell-based, PC12, CRE-LacZ reporter, forskolin-stimulated (AID 1146); conditions: luminescence, 4.5 h, higher = more signal, called active from +8 up or from −8 down;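 also: PC12 cells with 6xCRE LacZ reporter stimulated by forskolin 10 µM; beta-galactosidase reporter signal reflecting CREB driven transcription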
The following compounds are shown together with reported z-score values.
Keep it simple and answer with nothing but the number.

Previously resolved entries follow.
O=C1C2C=CC(C(O)c3ccc(F)cc3)N(Nc3ccccc3F)C2C(=O)N1c1ccccc1 (centres undefined)
1.53
C[C@]1(C(=O)NC2CC2)c2ccccc2C(=O)N(Cc2cc(C(F)(F)F)cc(C(F)(F)F)c2)[C@H]1c1ccc(CO)cc1
-1.25
COc1cc2c(cc1OC)CN(C(=O)[C@H]1[C@@H]3C(=O)O[C@@H](c4ccccc4)[C@@H](c4ccccc4)N3[C@@H](c3ccc(O)cc3)[C@]13C(=O)Nc1ccc(C#CCNC(N)=O)cc13)CC2
-0.638

Next:
Please give measured z-score of the following entry: COC(=O)C=C(CC(O)c1cccc(Cl)c1)OC (centres undefined)
-0.809

----------
experiment: modulators of HCV replicon luciferase signal, primary screen, HCV replication inhibitor project, Huh7 cells, luciferase reporter (AID 1109); details: 48 h, higher = more signal;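 also: huh7 hepatoma cells harbouring a luciferase neomycin HCV replicon reporter; luciferase luminescence as measure of HCV replicon replication; test concentration not given here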
The following compounds are shown together with reported z-score values.
Keep it simple and answer with nothing but the number.

Previously resolved entries follow.
CCCCN1CC=CC23O[C@@H]4C=CCOC(=O)[C@@H]4[C@H]2C(=O)N(CCCCCO)[C@@H]3C1=O (some centres undefined)
0.536
C=C(/C(=C/C[C@@H](OC(C)=O)c1ccc(OCCO)cc1)c1cnc2ccccc2c1)C(C)C
-1.19
O=C1O[C@H](c2ccccc2)[C@H](c2ccccc2)N2[C@H]1[C@@H](C(=O)Nc1nc3ccccc3s1)[C@]1(C(=O)Nc3ccc(C#CCCO)cc31)[C@H]2c1ccc(OCCO)cc1
-1.65

Please give measured z-score of the following entry: "C=CCOC(=O)[C@@H]1[C@H]2C(=O)O[C@H](c3ccccc3)[C@H](c3ccccc3)N2[C@H](c2ccc(OCCOC(=O)[C@@H]3C[C@@H]4C(=O)N[C@@H](CCCCN(C)C)C(=O)N4[C@@H]3c3ccc(O)cc3)cc2)[C@@]12C(=O)Nc1ccc(I)cc12"
-2.84
